target: Integrin alpha-V/beta-3 (Homo sapiens, UniProt P05106+P06756); test: Binding affinity to purified integrin alphaVbeta3 receptor (unknown origin) incubated for 2 hrs
Sequence (P05106 27-788 limits assumed): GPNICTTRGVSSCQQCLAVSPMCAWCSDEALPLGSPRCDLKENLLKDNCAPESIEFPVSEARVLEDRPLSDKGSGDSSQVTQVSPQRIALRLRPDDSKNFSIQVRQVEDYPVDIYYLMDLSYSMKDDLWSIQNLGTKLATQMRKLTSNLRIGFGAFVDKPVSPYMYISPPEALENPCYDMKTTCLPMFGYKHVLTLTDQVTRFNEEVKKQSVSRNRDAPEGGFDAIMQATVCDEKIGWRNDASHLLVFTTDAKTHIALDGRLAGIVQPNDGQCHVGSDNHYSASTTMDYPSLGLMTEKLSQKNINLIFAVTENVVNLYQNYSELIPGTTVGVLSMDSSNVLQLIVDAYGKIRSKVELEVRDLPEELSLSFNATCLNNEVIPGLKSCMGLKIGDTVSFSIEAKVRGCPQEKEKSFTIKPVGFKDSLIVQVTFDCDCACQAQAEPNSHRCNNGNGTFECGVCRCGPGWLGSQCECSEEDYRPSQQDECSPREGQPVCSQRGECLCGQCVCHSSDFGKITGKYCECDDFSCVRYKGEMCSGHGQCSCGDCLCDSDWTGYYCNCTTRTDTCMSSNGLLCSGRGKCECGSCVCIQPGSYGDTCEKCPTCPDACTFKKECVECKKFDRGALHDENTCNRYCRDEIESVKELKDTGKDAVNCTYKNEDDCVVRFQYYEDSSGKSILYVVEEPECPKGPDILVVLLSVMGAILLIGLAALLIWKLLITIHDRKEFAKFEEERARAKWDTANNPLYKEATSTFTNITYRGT
Sequence (P06756 31-889 limits assumed): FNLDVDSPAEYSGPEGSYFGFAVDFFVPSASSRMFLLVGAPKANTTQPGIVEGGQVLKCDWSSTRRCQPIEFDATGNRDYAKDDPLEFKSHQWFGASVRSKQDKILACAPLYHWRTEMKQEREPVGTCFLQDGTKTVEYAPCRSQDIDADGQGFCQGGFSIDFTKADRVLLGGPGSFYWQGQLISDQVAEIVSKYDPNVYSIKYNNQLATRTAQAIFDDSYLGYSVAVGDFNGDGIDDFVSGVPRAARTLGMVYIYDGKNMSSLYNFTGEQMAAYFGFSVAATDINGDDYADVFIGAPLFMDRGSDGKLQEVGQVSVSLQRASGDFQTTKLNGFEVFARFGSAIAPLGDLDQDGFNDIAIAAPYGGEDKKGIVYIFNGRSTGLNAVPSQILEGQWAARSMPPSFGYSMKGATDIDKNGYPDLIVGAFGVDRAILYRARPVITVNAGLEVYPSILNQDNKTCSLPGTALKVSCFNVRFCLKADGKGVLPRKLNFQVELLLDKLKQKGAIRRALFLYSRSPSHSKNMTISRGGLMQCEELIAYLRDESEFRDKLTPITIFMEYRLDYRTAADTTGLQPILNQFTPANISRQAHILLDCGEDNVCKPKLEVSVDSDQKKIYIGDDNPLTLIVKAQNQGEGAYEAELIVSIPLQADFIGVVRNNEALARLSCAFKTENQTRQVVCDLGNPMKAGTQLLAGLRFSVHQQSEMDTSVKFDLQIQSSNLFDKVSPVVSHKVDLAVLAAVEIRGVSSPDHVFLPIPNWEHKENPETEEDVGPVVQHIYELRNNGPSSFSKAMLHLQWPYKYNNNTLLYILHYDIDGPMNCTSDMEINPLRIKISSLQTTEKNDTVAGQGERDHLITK
Sequence (P06756 891-1048 limits assumed): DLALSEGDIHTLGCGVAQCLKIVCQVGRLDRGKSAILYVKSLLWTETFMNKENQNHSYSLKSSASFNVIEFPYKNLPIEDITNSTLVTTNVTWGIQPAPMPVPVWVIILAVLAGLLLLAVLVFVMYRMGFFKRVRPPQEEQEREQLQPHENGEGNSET
measurement.label: IC50 (nM)
Numeric answer only, unit nM assumed.

Record summary for "O=C(O)Cc1cc(I)c(Oc2cc(I)c(O)c(I)c2)c(I)c1" : reported IC50 = 62.4

From: ChEMBL document CHEMBL4613328
